// Ki lookup, one value per entry
Biological target: HCV NS3 protease genotype 3a (3A-1) (Hepatitis C virus genotype 3a, UniProt Q81258)
Assay: HCV NS3 protease time-resolved fluorescence (TRF) assay, genotype 3a
Format: biochemical
Settings: Ki 3a
Description: The HCV NS3 protease inhibitory activity of the present compounds may be tested using assays known in the art. One such assay is HCV NS3 protease time-resolved fluorescence (TRF) assay as described below and in International Patent Application Publication No. WO2006/102087. […] Product fluorescence is detected using either a VICTOR V2 or FUSION fluorophotometer (Perkin Elmer Life and Analytical Sciences) with excitation at 340 nm and emission at 615 nm with a 400 μs delay. […]

molecule	Ki
C=C[C@@H]1C[C@]1(NC(=O)[C@@H]1C[C@@H]2CN1C(=O)[C@H](C(C)(C)C)NC(=O)O[C@@H]1C[C@H]1CCCCCc1c(nc3ccccc3c1OCC1CN(C)C1)O2)C(=O)NS(=O)(=O)C1(C)CC1	0.67 nM
C=C[C@@H]1C[C@]1(NC(=O)[C@@H]1C[C@@H]2CN1C(=O)[C@H](C(C)(C)C)NC(=O)O[C@@H]1C[C@H]1CCCCCc1c(nc3ccccc3c1OC1CC3CCC(C1)N3C(=O)OC(C)(C)C)O2)C(=O)NS(=O)(=O)C1(C)CC1 (single isomer, unassigned) [Example 273]	68 nM

Query :: Bench note: what Ki did `C=C[C@@H]1C[C@]1(NC(=O)[C@@H]1C[C@@H]2CN1C(=O)[C@H](C1CCCC1)NC(=O)O[C@@H]1CCC[C@H]1CC/C=C/Cc1c(nc3ccccc3c1OC(C)=O)O2)C(=O)NS(=O)(=O)C1CC1` show?
Result :: 3.5 nM

Query :: Similarly, `C=C[C@@H]1C[C@]1(NC(=O)[C@@H]1C[C@@H]2CN1C(=O)[C@H](C1CCCC1)NC(=O)O[C@@H]1CCC[C@H]1CC/C=C/Cc1c(nc3ccccc3c1OCCCOCCOC)O2)C(=O)NS(=O)(=O)C1(C)CC1` ?
Result :: 2.3 nM
